Reported PBM binding z-score by item:
system: VDR:RXRa (NR concentration 270 nM, RXRa partner concentration 90 nM); assay: PBM binding z-score (relative to random genomic background probes); higher = stronger binding; sequences stand for … in GC…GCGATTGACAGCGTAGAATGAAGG

{"macromoleculeSequence": "TCTAGTTGGTAAAAGGTCACACACTCGAAATGCG", "PBM binding z-score": 4.89}
{"macromoleculeSequence": "ATATGTAGGTTATCGGGTCATTCTGTTTGCGCAT", "PBM binding z-score": 3.82}
{"macromoleculeSequence": "TATACAGGGTCAAAGACCAGAGTACGAATGTCGA", "PBM binding z-score": 4.43}

The reported PBM binding z-score value, VDR:RXRa (NR concentration 270 nM, RXRa partner concentration 90 nM), for `TCGCCTAGGTCATGCGGGCCAGTATAGTGTCGGC` reads 3.04

Param item: `GCATGTAGATCAAGGTTAAGAAAGACTAAGCTAA` ; param system: VDR:RXRa (NR concentration 270 nM, RXRa partner concentration 90 nM); output PBM binding z-score: 0.22

Item `ATCGTAAGGTCGAGGTGAGTATAGAGAAAGGGAA` ; assay system VDR:RXRa (NR concentration 270 nM, RXRa partner concentration 90 nM); PBM binding z-score reported as 1.99
